Data credit: the supplement of paper PMC6555819

Tested on: RXRa homodimer (NR concentration 180 nM)
Assay: PBM binding z-score (relative to random genomic background probes); higher = stronger binding; sequences stand for … in GC…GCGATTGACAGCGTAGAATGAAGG
Class rule met: PBM binding z-score at least 3. Class rule not met: PBM binding z-score below 3.

macromolecule sequence	classification
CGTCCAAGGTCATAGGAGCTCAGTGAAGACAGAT	rule met

Is the recorded value of PBM binding z-score equal to or greater than 3 for this sequence? "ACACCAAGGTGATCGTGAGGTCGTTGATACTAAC"
rule not met

Is the recorded value of PBM binding z-score equal to or greater than 3 for this sequence? "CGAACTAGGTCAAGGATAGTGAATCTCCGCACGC"
rule not met

Is the recorded value of PBM binding z-score equal to or greater than 3 for this sequence? "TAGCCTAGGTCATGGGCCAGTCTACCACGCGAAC"
rule met

Is the recorded value of PBM binding z-score equal to or greater than 3 for this sequence? "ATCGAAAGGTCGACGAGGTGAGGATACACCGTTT"
rule met

Is the recorded value of PBM binding z-score equal to or greater than 3 for this sequence? "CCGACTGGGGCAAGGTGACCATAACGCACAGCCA"
rule not met

Is the recorded value of PBM binding z-score equal to or greater than 3 for this sequence? "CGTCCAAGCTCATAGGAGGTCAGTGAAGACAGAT"
rule not met

Is the recorded value of PBM binding z-score equal to or greater than 3 for this sequence? "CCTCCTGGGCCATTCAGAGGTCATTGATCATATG"
rule met

Is the recorded value of PBM binding z-score equal to or greater than 3 for this sequence? "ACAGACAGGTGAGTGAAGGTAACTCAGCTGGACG"
rule not met

Is the recorded value of PBM binding z-score equal to or greater than 3 for this sequence? "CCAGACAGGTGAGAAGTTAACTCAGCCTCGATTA"
rule not met
